// provenance: patent US6136327A

- assay comment: clinical
- experimental conditions: human, in vivo, iv, Apparent half-life (t1/2)
measured endpoint: half-life (h)
Answers are plain numbers, in h.

So what does the record say about half-life for O=C(c1ccccc1)c1ccc2n1CC[C@H]2C(=O)O ?
5

###

Consider the following molecules; for each one, report its AUC(0-inf).
- assay comment: clinical
- experimental conditions: human, in vivo, iv, AUCinf
Answers are plain numbers, in ng·h/mL.

So what does the record say about AUC(0-inf) for O=C(c1ccccc1)c1ccc2n1CC[C@H]2C(=O)O [R-ketorolac] ?
6250

Now let's try a different one.
So what does the record say about AUC(0-inf) for O=C(c1ccccc1)c1ccc2n1CC[C@@H]2C(=O)O [S-ketorolac] ?
1560
